assayText: qHTS assay to identify small molecule agonists of the hypoxia (HIF-1) signaling pathway - cell viability counter screen (AID 1224844); further: nearly all actives have a fitted effect of over 50% in size
measurementConditions: HRE-bla ME-180 viability, CellTiter-Glo luminescence, 17 h; series mostly up to 76.8 µM
Records with an inconclusive call do not appear. Active and inactive are the calls of the source. The call rests on the fitted dose curve.
Your response should consist of one outcome taken from active, inactive

>  <smilesStructure>
Oc1cc2ccccc2cc1O

>  <classLabel>
inactive

$$$$

Request: Assay result, entry `Oc1ccc(-c2ccc(O)cc2)cc1` — outcome?
Response: active

Request: Assay result, entry `Cc1c(C)n(Cc2ccccc2)c2ccc(C(=O)OCCN(C)C)cc12` — outcome?
Response: inactive

---

assayText: A CellTox Green Cytotoxicity Assay to monitor cytotoxicity in HEK293 cells - 32 hour (AID 1224881); further: nearly all actives have a fitted effect of over 40% in size
measurementConditions: CellTox Green fluorescence; series mostly up to 76.8 µM
Inconclusive results are not listed. The source made the active and inactive calls. The call rests on the fitted dose curve; in most records, active means well fitted activation curve with a large enough effect in the repeat runs; inconclusive means weak or mixed curves; inactive means flat fitted curve, though single readings scatter.
Your response should consist of one outcome taken from active, inactive

# example entries with known answers
>  <molecule>
C=C(C)C(=O)OCCC[Si](Cl)(Cl)Cl

>  <classLabel>
inactive

$$$$
>  <molecule>
C/C=C/c1ccc(OC)c(OC)c1

>  <classLabel>
inactive

$$$$
>  <molecule>
Clc1ccc(C(c2ccccc2Cl)C(Cl)Cl)cc1 (stereo not given)

>  <classLabel>
inactive

$$$$
>  <molecule>
COC(=O)CC(C)CCC=C(C)C (stereo not given)

>  <classLabel>
inactive

$$$$
>  <molecule>
Cc1cn[nH]c1

>  <classLabel>
inactive

$$$$

Request: Assay result, entry `Brc1ccccc1-c1ccccc1` — outcome?
Response: active

Request: Assay result, entry CCCC(O)C(O)CO (stereo not given) — outcome?
Response: inactive

Request: Assay result, entry `O[C@@H](c1cc(C(F)(F)F)nc2c(C(F)(F)F)cccc12)[C@H]1CCCCN1` — outcome?
Response: active

Request: Assay result, entry `Brc1ccccn1` — outcome?
Response: inactive

Request: Assay result, entry `CCN(CC)c1cccc(C)c1` — outcome?
Response: inactive

---

assayText: qHTS assay to identify small molecule antagonists of the constitutive androstane receptor (CAR) signaling pathway - cell viability counter screen (AID 1224837); further: nearly all actives have a fitted effect of over 45% in size
measurementConditions: HepG2-CYP2B6-hCAR viability, CellTiter-Fluor, 23 h, co-treated with 50 nM CITCO; series mostly up to 92.4 µM
Records with an inconclusive call do not appear. Active and inactive are the calls of the source. Calls follow the shape of the dose curve; as a rule, active = well fitted cell-killing curve with a large enough effect in the repeat runs; inconclusive = weak or mixed curves, or effect the other way; inactive = flat fitted curve, though single readings scatter.
Your response should consist of one outcome taken from active, inactive

>  <compound>
C=C(C)CCCC

>  <classLabel>
inactive

$$$$
>  <compound>
Cc1cncc(C)c1

>  <classLabel>
inactive

$$$$
>  <compound>
CCCCCCCC(OC)OC

>  <classLabel>
inactive

$$$$
>  <compound>
CCCCCCCCCC(=O)N(C)C

>  <classLabel>
inactive

$$$$
>  <compound>
CN1[C@@H]2CC[C@@H]1CC(OC(=O)C(CO)c1ccccc1)C2 (some centres undefined)

>  <classLabel>
inactive

$$$$
>  <compound>
CC1(C)COCN1

>  <classLabel>
inactive

$$$$
>  <compound>
CCO[Si](C)(C)OCC

>  <classLabel>
inactive

$$$$
>  <compound>
OCCCc1cccnc1

>  <classLabel>
inactive

$$$$

Consider now this further compound.
Request: Assay result, entry `CCCCCCCC/C=C\CCCCCCCC(=O)NCc1ccc(O)c(OC)c1` — outcome?
Response: inactive
